Data credit: PubChem BioAssay AID1159580

# measurement.description: chemical genetic growth profiling, strain panel (AID 1159580);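 further: tested at 20 µM; growth read once vehicle control cultures reached saturation at 30 °C; 1 = growth at the plate median or of vehicle wells; lower values mean less growth of the strain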
# measurement.context: S. cerevisiae deletion strains, growth OD, locus YHR087W, strain rtc3, active compounds read low
Screen size: about 5,500 compounds; about 2,000 (36%) were called active. About 18% were inconclusive and are not listed. Some of the results follow.
Can you tell me normalized growth for the items I'm about to list?
Output: the number by itself.

Report normalized growth for NC(=O)C1=C(O)C(=O)N(C2CCCCC2)C1 0.99

Report normalized growth for COC(=O)c1cc(OC)c(OC)cc1NC(=O)Nc1cc(Cl)cc(Cl)c1 1.02

Report normalized growth for COc1cccc(C2SCc3cc(C)c(C)cc3CS2)c1O 1.01

Report normalized growth for N#CCC(=O)N(Cc1ccccc1F)C(=O)NC1CCCCC1 0.974

Report normalized growth for O=C(Cc1ccccc1)NC1CCN(S(=O)(=O)c2ccc(Cl)cc2)CC1 1

Report normalized growth for CC(=O)OCCCCN1C(=O)c2ccccc2C1=O 1.01

Report normalized growth for CCOC(=O)CCC(C#N)(c1ccc(Cl)cc1)N1CCOCC1 (centres undefined) 0.978

Report normalized growth for O=S(=O)(c1ccc(Cl)cc1)N1CCN(Cc2ccccc2)CC1 0.978

Report normalized growth for N/C(=N/O)c1cnccc1C(F)(F)F 0.986
